Data origin, for the record: ChEMBL document CHEMBL1240342

- system_under_test: Vascular endothelial growth factor receptor 2 (Homo sapiens)
- Sequence (P35968 whole entry): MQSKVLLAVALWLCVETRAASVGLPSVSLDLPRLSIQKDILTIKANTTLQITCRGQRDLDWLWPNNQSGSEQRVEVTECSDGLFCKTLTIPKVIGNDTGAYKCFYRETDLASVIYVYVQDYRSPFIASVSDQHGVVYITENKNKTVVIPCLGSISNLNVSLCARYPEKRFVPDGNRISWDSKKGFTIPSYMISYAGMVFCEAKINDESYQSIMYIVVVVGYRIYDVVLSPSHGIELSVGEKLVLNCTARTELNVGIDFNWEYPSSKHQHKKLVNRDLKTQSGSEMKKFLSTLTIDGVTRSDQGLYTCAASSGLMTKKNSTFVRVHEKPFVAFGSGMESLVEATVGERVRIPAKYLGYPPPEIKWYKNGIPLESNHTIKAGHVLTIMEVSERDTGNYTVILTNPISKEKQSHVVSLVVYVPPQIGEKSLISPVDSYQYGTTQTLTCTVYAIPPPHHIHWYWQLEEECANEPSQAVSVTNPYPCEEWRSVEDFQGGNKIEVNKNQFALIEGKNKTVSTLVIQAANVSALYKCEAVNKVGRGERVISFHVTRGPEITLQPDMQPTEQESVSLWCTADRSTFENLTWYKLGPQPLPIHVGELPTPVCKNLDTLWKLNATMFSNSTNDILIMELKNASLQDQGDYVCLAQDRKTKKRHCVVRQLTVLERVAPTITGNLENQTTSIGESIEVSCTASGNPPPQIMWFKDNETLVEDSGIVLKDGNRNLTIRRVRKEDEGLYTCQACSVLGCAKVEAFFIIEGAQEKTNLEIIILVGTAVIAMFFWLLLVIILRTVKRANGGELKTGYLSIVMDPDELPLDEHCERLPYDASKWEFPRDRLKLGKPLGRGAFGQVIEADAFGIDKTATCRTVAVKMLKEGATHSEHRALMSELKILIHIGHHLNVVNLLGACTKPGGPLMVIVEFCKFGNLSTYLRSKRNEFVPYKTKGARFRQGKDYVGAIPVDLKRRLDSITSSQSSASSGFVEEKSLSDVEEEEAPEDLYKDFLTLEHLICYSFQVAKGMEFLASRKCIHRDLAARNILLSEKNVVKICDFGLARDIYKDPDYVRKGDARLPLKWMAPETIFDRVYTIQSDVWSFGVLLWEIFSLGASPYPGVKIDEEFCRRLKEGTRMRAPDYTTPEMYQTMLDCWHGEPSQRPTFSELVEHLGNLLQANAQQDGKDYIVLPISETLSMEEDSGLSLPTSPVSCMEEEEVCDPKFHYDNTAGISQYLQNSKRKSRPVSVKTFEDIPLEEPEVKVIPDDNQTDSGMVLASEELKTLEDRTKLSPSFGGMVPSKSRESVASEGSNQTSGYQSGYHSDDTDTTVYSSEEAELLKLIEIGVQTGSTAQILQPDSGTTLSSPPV
pIC50: −log10 of the molar value.
readout_name: pIC50

chemical_string	system_under_test	value_reported
COc1cc2nccc(Oc3ccc4c(c3)OCCN4C(=O)Nc3ccc(Cl)cc3)c2cc1C(C)=O	Vascular endothelial growth factor receptor 2 (Homo sapiens)	9.22

I. COc1cc2nccc(Oc3ccc4c(C(=O)Nc5ccc(Cl)cc5)cccc4c3)c2cc1C(C)=O
II. COc1cc2nccc(Oc3ccc4c(C(=O)NC(C)C)cccc4c3)c2cc1OC
Which entry shows the lesser value of pIC50 here, I or II ? Mark your answer with the label of the selected entry.
II
(II: 8.26, I: 9.70)
